Data provenance: patent US6410775

- study.target: ACA-6701 aPL antibody
- assay.method.text: competitive fluorescence polarization (cFP), displacement of CB2*-F
pKi: −log10 of the molar value. Bridge positions count the residues as written; N and C are the ends. Ends that are not written are not given here.
metric: pKi

A. GPCILLARDRCG (disulfide 3-11 (inferred)) [CB2* …]
B. AGPCLLLAPDRCPG [peptide ACA-6501/3B10 … (monomer)]
Prompt: Which of the two items, A and B , has the greater recorded pKi? Indicate your choice by writing its label.
Response: A
